- tgt: RAC-beta serine/threonine-protein kinase (Homo sapiens) (UniProt P31751)
- Sequence (P31751 whole entry): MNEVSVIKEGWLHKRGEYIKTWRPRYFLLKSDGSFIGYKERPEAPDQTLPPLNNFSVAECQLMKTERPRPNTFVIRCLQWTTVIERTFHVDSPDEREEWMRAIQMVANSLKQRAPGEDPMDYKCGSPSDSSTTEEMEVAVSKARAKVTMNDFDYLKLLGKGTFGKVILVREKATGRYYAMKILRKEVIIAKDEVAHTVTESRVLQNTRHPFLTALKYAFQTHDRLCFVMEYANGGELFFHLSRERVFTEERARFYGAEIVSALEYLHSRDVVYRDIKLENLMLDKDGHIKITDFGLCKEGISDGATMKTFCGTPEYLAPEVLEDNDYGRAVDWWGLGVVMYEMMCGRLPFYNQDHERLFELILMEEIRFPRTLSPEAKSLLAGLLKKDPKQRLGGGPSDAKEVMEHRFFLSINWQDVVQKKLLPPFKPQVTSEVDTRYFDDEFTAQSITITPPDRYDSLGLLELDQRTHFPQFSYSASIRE
- condition: at 1 µM
- Description: GSK_PKIS: AKT2 mean inhibition at 1 uM [Nanosyn]
For each entry below, report its inhibition value.

query: Tell me reported inhibition for Clc1ccc(CNc2nccc(-c3cnn4ncccc34)n2)cc1 , tested with RAC-beta serine/threonine-protein kinase (Homo sapiens) (UniProt P31751).
result: -0.27%

query: Lookup: inhibition / RAC-beta serine/threonine-protein kinase (Homo sapiens) (UniProt P31751) / O=C(Nc1n[nH]c2cc(-c3ccccc3)ccc12)C1CC1
result: 1.68%

query: API: value(readout= inhibition, system= RAC-beta serine/threonine-protein kinase (Homo sapiens) (UniProt P31751), query= CS(=O)(=O)CCNCc1ccc(-c2ccc3ncnc(Nc4ccc(OCc5ccccc5)c(Br)c4)c3c2)o1 )
result: -3.04%

query: # get_value(readout= inhibition, system= RAC-beta serine/threonine-protein kinase (Homo sapiens) (UniProt P31751)) for CCc1cccc(CC)c1/C=C/c1cncc(C(=O)NC)c1
result: 1.3%

query: Form entry - test system: RAC-beta serine/threonine-protein kinase (Homo sapiens) (UniProt P31751); read-out: inhibition; molecule: CCN(CC)Cc1ccc(Nc2nccc(-c3cnn4ncccc34)n2)cc1
result: -2.22%

query: Missing value: inhibition, RAC-beta serine/threonine-protein kinase (Homo sapiens) (UniProt P31751), entry Fc1ccc(-c2ncn(CCCN3CCOCC3)c2-c2ccncc2)cc1 . Fill in?
result: 0.26%

query: Request: inhibition, test system RAC-beta serine/threonine-protein kinase (Homo sapiens) (UniProt P31751), entry FC(F)(F)c1cccc(Nc2nccc(-c3cnn4nc(-c5ccccc5)ccc34)n2)c1
result: 1.58%

query: Recorded inhibition for O=C(Nc1n[nH]c2nc(-c3ccc(O)cc3)c(Br)cc12)C1CC1 with RAC-beta serine/threonine-protein kinase (Homo sapiens) (UniProt P31751), please?
result: 3.12%

query: Query for RAC-beta serine/threonine-protein kinase (Homo sapiens) (UniProt P31751): what inhibition does the record show for COc1cc(C)c(N(C)C(=O)CN(C)C)cc1Nc1nc(Nc2cccc(F)c2C(N)=O)c2cc[nH]c2n1 ?
result: -2.1%

query: RAC-beta serine/threonine-protein kinase (Homo sapiens) (UniProt P31751) / inhibition / c1ccc(Oc2ccc(Nc3ncc(-c4ccccc4)o3)cc2)cc1 : value?
result: 0.15%

query: // lookup inhibition | system=RAC-beta serine/threonine-protein kinase (Homo sapiens) (UniProt P31751) | key= COc1ccc2cc(-c3c(-c4ccncc4)nc(-c4ccc([S+](C)[O-])cc4C)n3C)ccc2c1 (centres undefined)
result: -0.29%

query: Find inhibition (RAC-beta serine/threonine-protein kinase (Homo sapiens) (UniProt P31751)) for the entry COc1cc(Nc2ncc(-c3ccccc3)o2)cc(OC)c1OC
result: -1.88%

query: Lookup: inhibition / RAC-beta serine/threonine-protein kinase (Homo sapiens) (UniProt P31751) / O=C1Nc2ccc(I)cc2C1=Cc1cc(Br)c(O)c(Br)c1
result: 1.1%

query: Please tell me: inhibition of CN(C)c1ccc2c(c1)/C(=C/Nc1ccc(S(N)(=O)=O)cc1)C(=O)N2 , system RAC-beta serine/threonine-protein kinase (Homo sapiens) (UniProt P31751)?
result: 1.06%

query: Give recorded inhibition with RAC-beta serine/threonine-protein kinase (Homo sapiens) (UniProt P31751) for the following molecule: CN1CCN(CCCNc2nc3ccc(Oc4ccc(NC(=O)Nc5cc(C(F)(F)F)ccc5F)cc4)cc3[nH]2)CC1
result: -0.85%

query: Find inhibition (RAC-beta serine/threonine-protein kinase (Homo sapiens) (UniProt P31751)) for the entry CCS(=O)(=O)c1ccc(OC)c(Nc2ncc(-c3cccc(-c4ccccc4F)c3)o2)c1
result: 0.43%

query: Checklist item: inhibition tested on RAC-beta serine/threonine-protein kinase (Homo sapiens) (UniProt P31751), entry Fc1ccc(-c2nc3n(c2-c2ccncc2)CCS3)cc1 , value?
result: -1.83%

query: Give the reported inhibition for O=C1NC(=O)C(c2cccc(Cl)c2)=C1Nc1ccc(Cl)c(C(=O)O)c1 (system: RAC-beta serine/threonine-protein kinase (Homo sapiens) (UniProt P31751)).
result: 0.7%

query: Lookup: inhibition / RAC-beta serine/threonine-protein kinase (Homo sapiens) (UniProt P31751) / COc1cc(N2CCN(C(C)C)CC2)ccc1Nc1nc(Nc2ccc(F)cc2C(=O)NC[C@@H](O)CO)c2cc[nH]c2n1
result: -1.3%

query: Fill in the recorded inhibition for this molecule, with RAC-beta serine/threonine-protein kinase (Homo sapiens) (UniProt P31751) as test system: Cc1ccc(C(=O)NC(C)C)cc1-c1ccc(C(=O)NCC2CC2)cc1
result: -3%

query: Provide the documented inhibition with RAC-beta serine/threonine-protein kinase (Homo sapiens) (UniProt P31751) as the system for NC(=O)c1cc(-c2ccc(F)cc2)cc(-c2ccncc2)c1N
result: 2.01%

query: What is its inhibition for RAC-beta serine/threonine-protein kinase (Homo sapiens) (UniProt P31751)? Entry: CCc1nccc2c1nc(-c1nonc1N)n2CC
result: 1.71%

query: Param readout= inhibition; system= RAC-beta serine/threonine-protein kinase (Homo sapiens) (UniProt P31751); entry= C/C(Nc1ccc(S(N)(=O)=O)cc1)=C1/C(=O)Nc2ccccc21 ; returns value.
result: -0.17%

query: Query the reported inhibition for RAC-beta serine/threonine-protein kinase (Homo sapiens) (UniProt P31751); item: COc1ccc(C2=C(N3CCc4ccccc43)C(=O)NC2=O)cc1
result: 1.87%

query: Under RAC-beta serine/threonine-protein kinase (Homo sapiens) (UniProt P31751): inhibition value of c1ccc(-c2n[nH]cc2-c2ccnc(-c3ccc(OCCN4CCOCC4)cc3)c2)nc1 ?
result: -0.3%

query: Please state recorded inhibition (tested on RAC-beta serine/threonine-protein kinase (Homo sapiens) (UniProt P31751)) of COc1cc2ncn(-c3cc(OCCc4ccccc4)c(C(N)=O)s3)c2cc1OC
result: 0.89%

query: What is its inhibition for RAC-beta serine/threonine-protein kinase (Homo sapiens) (UniProt P31751)? Entry: COc1cc(Nc2ncc3c(C)nc(-c4cccc(Oc5ccccc5)c4)n3n2)cc(OC)c1OC
result: 1.85%

query: // fetch RAC-beta serine/threonine-protein kinase (Homo sapiens) (UniProt P31751) inhibition for CS(=O)(=O)CCNCc1cc(-c2cc3c(Nc4ccc(OCc5cccc(F)c5)c(Cl)c4)ncnc3s2)cs1
result: 1.93%

query: Lab note: need inhibition with RAC-beta serine/threonine-protein kinase (Homo sapiens) (UniProt P31751) for entry COc1ccc2ncn(-c3cc(O[C@H](C)c4ccccc4Cl)c(C(N)=O)s3)c2c1 , please look it up.
result: -2.8%

query: Quick check: inhibition on RAC-beta serine/threonine-protein kinase (Homo sapiens) (UniProt P31751), item Nc1nccc(-c2c(-c3ccc(F)cc3)ncn2C2CCC(O)CC2)n1 (centres undefined) ?
result: -1.44%

query: // map COc1ccc(-c2ccc3c(NC(=O)C4CC4)n[nH]c3n2)cc1 to recorded inhibition (system: RAC-beta serine/threonine-protein kinase (Homo sapiens) (UniProt P31751))
result: 0.37%

query: Request - read-out inhibition | tested on RAC-beta serine/threonine-protein kinase (Homo sapiens) (UniProt P31751) | molecule NC(=O)c1ccc(Oc2nccc(-c3c(-c4ccc(F)cc4)ncn3C3CCNCC3)n2)cc1
result: 1.86%

query: Hello, I am looking for reported inhibition with RAC-beta serine/threonine-protein kinase (Homo sapiens) (UniProt P31751) for O=C1Nc2ccccc2/C1=C/Nc1ccc(-n2cncn2)cc1 . Could you help?
result: 0.9%

query: Lookup: inhibition / RAC-beta serine/threonine-protein kinase (Homo sapiens) (UniProt P31751) / Cc1nnc(-c2ccc(C)c(-c3ccc(C(=O)NCc4ccc(Cl)cc4)cc3)c2)o1
result: -2.39%

query: Param readout= inhibition; system= RAC-beta serine/threonine-protein kinase (Homo sapiens) (UniProt P31751); entry= CN(C)CCOc1ccc(-c2cc(-c3ccc4c(c3)CCC4=NO)c(-c3ccncc3)o2)cc1 ; returns value.
result: -0.42%

query: Request: inhibition, test system RAC-beta serine/threonine-protein kinase (Homo sapiens) (UniProt P31751), entry COc1cc(Nc2ncc3c(C)nc(-c4cccc(C(F)(F)F)c4)n3n2)cc(OC)c1OC
result: 1.52%

query: Hello, I am looking for reported inhibition with RAC-beta serine/threonine-protein kinase (Homo sapiens) (UniProt P31751) for C[C@@H](Oc1cc(-n2cnc3ccc(OC4CCN(C)CC4)cc32)sc1C(N)=O)c1ccccc1Cl . Could you help?
result: -2.31%

query: Request: inhibition, test system RAC-beta serine/threonine-protein kinase (Homo sapiens) (UniProt P31751), entry NS(=O)(=O)c1ccc(Nc2cc(-c3ccc(O)c(F)c3)n[nH]2)cc1
result: -1.69%

query: Notebook entry, RAC-beta serine/threonine-protein kinase (Homo sapiens) (UniProt P31751) assay: inhibition of NS(=O)(=O)c1ccc(N/N=C2\C(=O)Nc3ccc(C(=O)NCCCn4ccnc4)cc32)cc1 = ?
result: 2.17%

Reference source: ChEMBL document CHEMBL1961873
